// data source = ChEMBL document CHEMBL3244308

Test: Lipophilic-hydrophilic balance, Rm of the compound by reversed-phase partition chromatography
Assay type: physicochemical
QUANTITY_KIND: Rm
Just the number, please.

Measured Rm of CC(=O)N(c1ccc(Nc2c3ccccc3nc3cc([N+](=O)[O-])ccc23)cc1)S(C)(=O)=O : -0.08

Measured Rm of COc1cc(NS(C)(=O)=O)ccc1Nc1c2ccccc2nc2ccccc12 [AMSACRINE] : 0.18

Measured Rm of CC(C)(C)C(=O)N(c1ccc(Nc2c3ccccc3nc3ccccc23)cc1)S(C)(=O)=O.Cl : 0.31

Measured Rm of CCCCCCCC(=O)N(c1ccc(Nc2c3ccccc3nc3cc([N+](=O)[O-])ccc23)cc1)S(C)(=O)=O : 0.61

Measured Rm of CC(=O)Nc1ccc2c(Nc3ccc(N(C(=O)C(C)C)S(C)(=O)=O)cc3)c3ccccc3nc2c1.Cl : 0.29

Measured Rm of Br.CCCCCCCCCCC(=O)N(c1ccc(Nc2c3ccccc3nc3cc(NC(C)=O)ccc23)cc1)S(C)(=O)=O : 0.79

Measured Rm of COc1cc(N(C(C)=O)S(C)(=O)=O)ccc1Nc1c2ccccc2nc2c(C)cccc12 : 0.24

Measured Rm of CCC(=O)N(c1ccc(Nc2c3ccccc3nc3ccccc23)cc1)S(C)(=O)=O.Cl : 0.07

Measured Rm of CCCCCC(=O)N(c1ccc(Nc2c3ccccc3nc3cc([N+](=O)[O-])ccc23)cc1)S(C)(=O)=O : 0.41

---

Test: Half life of the compound in 0.1 M mercaptoethanol buffer at pH 7.4 at 37 degC by thiolytic assay
Type: physicochemical
QUANTITY_KIND: half-life (h)
Output spec: scalar in h, unitless text.

Measured half-life of CC(=O)N(c1ccc(Nc2c3ccccc3nc3ccccc23)cc1)S(C)(=O)=O.Cl : 6.6

---

Test system: L1210
Assay: Antitumor activity against mouse L1210 cells subcutaneously xenografted in ip dosed C3H/DBA2 F1 hybrid mouse assessed as increase in host lifespan administered daily for 5 days starting 24 hrs post-tumor implantation
Type: functional
QUANTITY_KIND: ILS (%)
Output spec: scalar in %, unitless text.

Measured ILS of COC(=O)N(c1ccc(Nc2c3ccccc3nc3ccccc23)cc1)S(C)(=O)=O.Cl : 36

Measured ILS of Br.CCCCCCCCCCC(=O)N(c1ccc(Nc2c3ccccc3nc3cc(NC(C)=O)ccc23)cc1)S(C)(=O)=O : 39

Measured ILS of CCC(C)C(=O)N(c1ccc(Nc2c3ccccc3nc3cc(NC(C)=O)ccc23)cc1)S(C)(=O)=O.Cl (stereo not drawn) : 31

Measured ILS of CCCN(C)/N=N/c1ccc2c(Nc3ccc(NS(C)(=O)=O)cc3OC)c3ccccc3nc2c1.CS(=O)(=O)O : 59

Measured ILS of CCCCCCC(=O)N(c1ccc(Nc2c3ccccc3nc3cc([N+](=O)[O-])ccc23)cc1)S(C)(=O)=O : 41

Measured ILS of CCC(=O)N(c1ccc(Nc2c3ccccc3nc3ccccc23)cc1)S(C)(=O)=O.Cl : 56

Measured ILS of CCCCCC(=O)N(c1ccc(Nc2c3ccccc3nc3cc([N+](=O)[O-])ccc23)cc1)S(C)(=O)=O : 39

Measured ILS of CCCCCC(=O)N(c1ccc(Nc2c3ccccc3nc3cc(NC(C)=O)ccc23)cc1)S(C)(=O)=O.Cl : 43
